src = the RepoRT retention time repository (doi:10.1016/j.chroma.2014.05.003)

assay: RP, Agilent ZORBAX Eclipse Plus C18, 50 × 4.6 mm, 1.8 µm, 0.5 mL/min, estimated dead time 1.1 min; A: water + 0.1% formic acid; B: acetonitrile + 0.1% formic acid; gradient (min/%B) 0/10 3/10 25/100 28/100; conditions: stereoisomer not certain
recorded metric: log10(LC retention time) (log10 of the value in min)
Scale: decimal log of LC retention time, LC retention time in min.

These recorded examples may help you get a feel for the data.
CNC(=O)CSP(=O)(OC)OC = 0.35
CCCCCCCCCCCC[N+](C)(C)Cc1ccccc1 = 1.21
Nc1ccc(S(N)(=O)=O)cc1 = 0.26
CCOc1ccc(NC(C)=O)cc1 = 0.97
COC1C(OC(C)=O)CC(=O)OC(C)CC=CC=CC(O)C(C)CC(CC=O)C1OC1OC(C)C(OC2CC(C)(O)C(OC(=O)CC(C)C)C(C)O2)C(N(C)C)C1O (stereo not given) = 1.08
COP(=O)(NC(C)=O)SC (stereo not given) = 0.27
CN(C)CCOC(c1ccccc1)c1ccccc1 = 0.99
COc1nc(NC(C)C)nc(NC(C)C)n1 = 0.96

Dear colleague, I am looking for the recorded log10(LC retention time) of the following compound: CCOc1cc(OP(=S)(OC)OC)nc(CC)n1
1.27

Given the entry CNC(=O)Oc1cc(C)cc(C(C)C)c1 , report its measured log10(LC retention time).
1.18
